Ref: patent US3936463A

- Test system: Morphine-dependent rats
- protocolDetails: Morphine-antagonistic action (provocation of withdrawal symptoms) in morphine-dependent rats
- Format: in vivo, rat
- conditionLabel: grade, scale not defined
Please provide measured Morphine-antagonistic action (provocation of withdrawal symptoms) for the entries that follow.
// return just the number, without any unit appended

State measured Morphine-antagonistic action (provocation of withdrawal symptoms) of the molecule CCC12CCN(CC3CC3)C(Cc3ccc(OCCCOC(=O)C(C)(C)C)cc31)C2C (stereo not drawn) [Example 4a] with Morphine-dependent rats.
1

State measured Morphine-antagonistic action (provocation of withdrawal symptoms) of the molecule CCC(=O)OCCCCOc1ccc2c(c1)C1(CC)CCN(CC3CC3)C(C2)C1C (stereo not drawn) [Example 10a] with Morphine-dependent rats.
2

State measured Morphine-antagonistic action (provocation of withdrawal symptoms) of the molecule CCC12CCN(CC3CC3)C(Cc3ccc(OCCCOC(C)=O)cc31)C2C (stereo not drawn) [Example 1] with Morphine-dependent rats.
2

State measured Morphine-antagonistic action (provocation of withdrawal symptoms) of the molecule CCC12CCN(CC3CC3)C(Cc3ccc(OCCCCOC(=O)C(C)C)cc31)C2C (stereo not drawn) [Example 10b] with Morphine-dependent rats.
1

State measured Morphine-antagonistic action (provocation of withdrawal symptoms) of the molecule CCC12CCN(CC3CC3)C(Cc3ccc(OCCCOC(=O)C(C)C)cc31)C2C (stereo not drawn) [Example 2b] with Morphine-dependent rats.
1

State measured Morphine-antagonistic action (provocation of withdrawal symptoms) of the molecule CCC(=O)OCCCOc1ccc2c(c1)C1(C)CCN(CC3CC3)C(C2)C1C (stereo not drawn) [Example 8] with Morphine-dependent rats.
1

State measured Morphine-antagonistic action (provocation of withdrawal symptoms) of the molecule CCC12CCN(CC3CC3)C(Cc3ccc(OCCCCOC(C)=O)cc31)C2C (stereo not drawn) [Example 9] with Morphine-dependent rats.
1

State measured Morphine-antagonistic action (provocation of withdrawal symptoms) of the molecule CC(C)=CCN1CCC2(C)c3cc(O)ccc3CC1C2C (stereo not drawn) [Pentazocine, reference compound] with Morphine-dependent rats.
2

State measured Morphine-antagonistic action (provocation of withdrawal symptoms) of the molecule CCC(=O)OCCCOc1ccc2c(c1)C1(CC)CCN(CC3CC3)C(C2)C1C (stereo not drawn) [Example 2a] with Morphine-dependent rats.
2

State measured Morphine-antagonistic action (provocation of withdrawal symptoms) of the molecule COc1ccc2c3c1O[C@H]1[C@@H](O)C=C[C@H]4[C@@H](C2)N(C)CC[C@@]341 [Codeine, reference compound] with Morphine-dependent rats.
0

State measured Morphine-antagonistic action (provocation of withdrawal symptoms) of the molecule CC(=O)OCCCOc1ccc2c(c1)C1(C)CCN(CC3CC3)C(C2)C1C (stereo not drawn) [Example 7] with Morphine-dependent rats.
1

State measured Morphine-antagonistic action (provocation of withdrawal symptoms) of the molecule C/C=C/C(=O)OCCCOc1ccc2c(c1)C1(CC)CCN(CC3CC3)C(C2)C1C (stereo not drawn) [Example 4d] with Morphine-dependent rats.
2

* * *

- Test system: rat tails
- protocolDetails: animal or person
- conditionLabel: rats, s.c.; calculated from LD 50 and ED 50
Strictly below 600 in Therapeutic index LD 50 / ED 50: Criterion met. Otherwise: Criterion not met.

Would you kindly verify if Therapeutic index LD 50 / ED 50 of CCOC(=O)C1(c2ccccc2)CCN(C)CC1 [Pethidine, reference compound] is strictly less than 600?
Criterion met

Would you kindly verify if Therapeutic index LD 50 / ED 50 of CCC(=O)OCCCCOc1ccc2c(c1)C1(CC)CCN(CC3CC3)C(C2)C1C (stereo not drawn) [Example 10a] is strictly less than 600?
Criterion not met

Would you kindly verify if Therapeutic index LD 50 / ED 50 of CCC12CCN(CC3CC3)C(Cc3ccc(OCCCOC(C)=O)cc31)C2C (stereo not drawn) [Example 1] is strictly less than 600?
Criterion not met

Would you kindly verify if Therapeutic index LD 50 / ED 50 of CC(C)=CCN1CCC2(C)c3cc(O)ccc3CC1C2C (stereo not drawn) [Pentazocine, reference compound] is strictly less than 600?
Criterion met

Would you kindly verify if Therapeutic index LD 50 / ED 50 of CCC12CCN(CC3CC3)C(Cc3ccc(OCCCCOC(C)=O)cc31)C2C (stereo not drawn) [Example 9] is strictly less than 600?
Criterion not met

Would you kindly verify if Therapeutic index LD 50 / ED 50 of COc1ccc2c3c1O[C@H]1[C@@H](O)C=C[C@H]4[C@@H](C2)N(C)CC[C@@]341 [Codeine, reference compound] is strictly less than 600?
Criterion met

* * *

- protocolDetails: in vivo
- conditionLabel: rat, sc
experimentalEndpoint: LD50

Fill in reported LD50 for this entry: COc1ccc2c3c1O[C@H]1[C@@H](O)C=C[C@H]4[C@@H](C2)N(C)CC[C@@]341 [Codeine, reference compound]
202 mg/kg

Fill in reported LD50 for this entry: CCC(=O)OCCCOc1ccc2c(c1)C1(C)CCN(CC3CC3)C(C2)C1C (stereo not shown)
~425 mg/kg

Fill in reported LD50 for this entry: CCC12CCN(CC3CC3)C(Cc3ccc(OCCCOC(=O)C(C)C)cc31)C2C (stereo not shown)
~300 mg/kg

Fill in reported LD50 for this entry: CC(=O)OCCCOc1ccc2c(c1)C1(C)CCN(CC3CC3)C(C2)C1C (stereo not shown)
~400 mg/kg

* * *

- Tested on: rat tails
- protocolDetails: animal or person
- conditionLabel: rats, s.c.; calculated from LD 50 and ED 50
Please provide measured Therapeutic index LD 50 / ED 50 for the entries that follow.

Fill in reported Therapeutic index LD 50 / ED 50 for this entry: CCC(=O)OCCCOc1ccc2c(c1)C1(C)CCN(CC3CC3)C(C2)C1C (stereo not drawn)
~ 262

Fill in reported Therapeutic index LD 50 / ED 50 for this entry: CCC(=O)OCCCOc1ccc2c(c1)C1(CC)CCN(CC3CC3)C(C2)C1C (stereo not drawn)
604

Fill in reported Therapeutic index LD 50 / ED 50 for this entry: CC(=O)OCCCOc1ccc2c(c1)C1(C)CCN(CC3CC3)C(C2)C1C (stereo not drawn)
~ 258

Fill in reported Therapeutic index LD 50 / ED 50 for this entry: CCC12CCN(CC3CC3)C(Cc3ccc(OCCCOC(=O)C(C)(C)C)cc31)C2C (stereo not drawn)
> 515

Fill in reported Therapeutic index LD 50 / ED 50 for this entry: CCC12CCN(CC3CC3)C(Cc3ccc(OCCCCOC(=O)C(C)C)cc31)C2C (stereo not drawn) [Example 10b]
> 1,190

Fill in reported Therapeutic index LD 50 / ED 50 for this entry: CCC12CCN(CC3CC3)C(Cc3ccc(OCCCOC(=O)C(C)C)cc31)C2C (stereo not drawn)
~ 300
